- Test system: Amaranthus palmeri plants (glyphosate-resistant Palmer amaranth, “R-22”)
- method.summary: Topical trigger oligonucleotide bioassay with glyphosate on Amaranthus palmeri
- Type: in vivo
- Set-up: key: relative measure of activity, the tested oligonucleotide was either active, less active, or inactive in the bioassay; relative measure of activity, the tested oligonucleotide was either active, less active, or inactive in the bioassay; relative measure of activity, the tested oligonucleotide was either active, less active, or inactive in the bioassay
- test.parameters: 5.2 triggers to A. palmeri EPSPS coding sequence; topical application with Silwet L-77, glyphosate; relative measure of activity
measurement.label: Activity

INSERT INTO results (query_sequence, measurement_label, endpoint_result) VALUES
  ('AATGCCAGATGTTGCTATGAC (AATGCCAGATGTTGCTATGAC; antisense; DNA, backbone and methylation of C not given here; 5.2-DNA-wt is double-stranded DNA) [Oligo 5.2-ssDNA-S, ssDNA 21-mer, sense]', 'Activity', 'less active'),
  ('GTCATAGCAACATCTGGCATT [5.2-ssDNA-AS] (GTCATAGCAACATCTGGCATT; antisense; DNA, backbone and methylation of C not given here; 5.2-DNA-wt is double-stranded DNA) [Oligo 5.2-ssDNA-AS, ssDNA 21-mer, antisense]', 'Activity', 'less active');
